Entry source: patent US20250136720A1

target: T1, mouse FAP protein (mouse, UniProt P97321 1-761); test: method not stated
T1 construct: also called murine FAP
T1 sequence (P97321 other isoform, or with tags, fused parts or gaps limits assumed, form in doubt): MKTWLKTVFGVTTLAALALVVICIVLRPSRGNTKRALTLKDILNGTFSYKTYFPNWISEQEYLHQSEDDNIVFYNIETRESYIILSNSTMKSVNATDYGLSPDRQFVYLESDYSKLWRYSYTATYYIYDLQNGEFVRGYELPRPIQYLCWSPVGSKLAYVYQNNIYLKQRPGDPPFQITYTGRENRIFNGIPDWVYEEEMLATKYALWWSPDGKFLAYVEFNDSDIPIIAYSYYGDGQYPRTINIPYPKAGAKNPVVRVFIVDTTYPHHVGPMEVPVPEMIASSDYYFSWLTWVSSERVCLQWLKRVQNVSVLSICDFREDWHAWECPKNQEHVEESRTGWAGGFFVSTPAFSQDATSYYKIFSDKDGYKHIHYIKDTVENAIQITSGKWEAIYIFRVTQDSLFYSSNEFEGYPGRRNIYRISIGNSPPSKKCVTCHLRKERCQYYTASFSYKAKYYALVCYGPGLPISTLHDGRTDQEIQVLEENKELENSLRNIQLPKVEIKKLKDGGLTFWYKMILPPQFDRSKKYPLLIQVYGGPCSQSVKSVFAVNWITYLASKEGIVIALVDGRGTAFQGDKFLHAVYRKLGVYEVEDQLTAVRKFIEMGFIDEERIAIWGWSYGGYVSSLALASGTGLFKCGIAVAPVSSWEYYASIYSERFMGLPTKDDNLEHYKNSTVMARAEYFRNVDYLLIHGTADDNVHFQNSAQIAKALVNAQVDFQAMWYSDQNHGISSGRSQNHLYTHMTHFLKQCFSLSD
pKd: −log10 of the molar value.
MEASURED PROPERTY: pKd

Req: Supply pKd value. Item: FAP-A11 VK7-VH1 (FAP #3) (scFv, format in the KD assay not described; also called FAP-A11VK7VH1 (SS, NNN)) scFv: EIVLTQSPGTLSLSPGERATLSCRASQPISSYLAWYQQKPGQAPRLLIFSASNRATGIPDRFSGSGSGTEFTLTISSLEPEDFAVYYCQQYYDWPPYTFGGGTKVEIKGGGGSGGGGSGGGGSGGGGSDVQLVESGGGLVQPGGSLRLSCAASGFSMSNFAMTWVRQAPGEGLEWVSGIRGSGTTYYAESVKGRFTVSRDNSKNTLYLQMNSLRAEDTAIYYCAKTWGTEYFDYWGLGTLVTVSS
Resp: > 10.70
